Species on record: Rattus norvegicus
Assay: Open TG-GATES - Regimen: Daily Repeat
Type: toxicity, organism-based, Sprague-Dawley
Design: regimen Daily Repeat, gender Male, age 6 weeks
Conditions: in vivo, po, 0 mg/kg, […], tissue Plasma, route gavage, dose level Control, time 7 day
readout name: Cl (meq/L)
Give the number; meq/L is assumed, so skip it.

molecule: CCc1oc2ccccc2c1C(=O)c1cc(I)c(O)c(I)c1 [BENZIODARONE]
Cl (meq/L): 104.6
--
molecule: CC(C)C(=O)Nc1ccc([N+](=O)[O-])c(C(F)(F)F)c1 [FLUTAMIDE]
Cl (meq/L): 103.4
--
molecule: C[C@](N)(Cc1ccc(O)c(O)c1)C(=O)O [METHYLDOPA]
Cl (meq/L): 108.6
--
molecule: CC(C)(S)[C@@H](N)C(=O)O [PENICILLAMINE]
Cl (meq/L): 105.2
--
molecule: CC(=N)S [THIOACETAMIDE]
Cl (meq/L): 104.4

Form field: reported Cl of O=C(N[C@H](CO)[C@H](O)c1ccc([N+](=O)[O-])cc1)C(Cl)Cl [CHLORAMPHENICOL] 106.4

Form field: reported Cl of CN1C(=O)OC(C)(C)C1=O [TRIMETHADIONE] 105.2

Form field: reported Cl of Nc1nc(N)c2nc(-c3ccccc3)c(N)nc2n1 104.4
